Provenance of the data: PubChem BioAssay (NCI)

# System: HCC-2998 colon
# PROTOCOL NOTES: NCI-60 one-dose screen, 48 h (100 = growth as untreated, 0 = no growth, -100 = all killed)
# SETUP CONDITIONS: 10 µM unless noted
The panel holds about 83,000 compounds, 20% with a hit somewhere; the sample as a whole holds those more often.
Readings of growth for the listed compounds
Write the number in % without appending the unit.

COMPOUND	growth, %
CN1CCN(c2ccc(Nc3nc(NCCCNS(=O)(=O)c4ccc(Cl)cc4)c4sccc4n3)cc2)CC1	20
N#Cc1c(-c2cccs2)c(C#N)c(=O)n(Cc2nc3ccccc3[nH]2)c1N	116
COc1ccc(/C=N/NC(=O)CSc2nc(-c3cnccn3)cc(-c3cccs3)c2C#N)cc1OC	47.3
Oc1[nH]c2ccc(Cl)cc2c1N=Nc1nc(N=Nc2c(O)[nH]c3ccc(Cl)cc23)nc(N2CCCCC2)n1	38.7
CC(Nc1ncnc2ccc(-c3cnc4cnccn34)cc12)c1ccccc1 (centres undefined)	80.7

Proceed to the following item.
Write down growth measured for item C[C@]12CC[C@H]3[C@@H](CC=C4C[C@@H](O)CC[C@@]43C)[C@@H]1CC[C@@H]2[C@](C)(O)CCc1cccnc1 86.7

* * *

Form field: growth (one value per entry).
# Tested on: SK-OV-3 ovarian
# PROTOCOL NOTES: NCI-60 one-dose screen, 48 h (100 = growth as untreated, 0 = no growth, -100 = all killed)
# SETUP CONDITIONS: 10 µM unless noted
Compounds without any hit were thinned out: in the full panel of roughly 83,000, 20% have a hit. Activity calls are given as the source filed them. The calls were made as follows: active = growth percent below 10; inactive = the rest.

Below are worked cases with known answers.
COMPOUND	RECORDED RESULT
COc1ccc(-c2nc(C#N)c(N3CCC(S(=O)(=O)N4CCOCC4)CC3)o2)cc1	107% (inactive)
C#CCN(C)CCCOc1ccc(NCc2ccc(C(=O)NO)cc2)cc1Cl	-4.09% (active)
CCN(CC)CCOc1ccc(C(=C(C)c2ccc(OC)cc2)c2ccc(OCCN(CC)CC)cc2)cc1	96.4% (inactive)

Entry O=S(=O)(NCCCNc1nccc(-c2[nH]c(-c3ccccc3)nc2-c2ccc(F)c(O)c2)n1)c1ccc(C(F)(F)F)cc1 needs its growth filled in; supply it. 78.4% (inactive)

Supply measured growth of Cc1ccc(-c2csc(N/N=C/c3cccs3)n2)cc1 in your reply. 101% (inactive)

Provide measured growth value, entry: Cc1cc2nc(C(Cl)Cl)nc(-c3ccc(S(=O)(=O)N(C)C)cc3)n2n1 50.5% (inactive)

Look up and report measured growth for this entry: CN1CCN(Cc2ccc(NC(=O)c3cncc(C#Cc4cnc5ccc(O[C@@H]6CCOC6)nn45)c3)cc2C(F)(F)F)CC1 -67.8% (active)

Dear colleague, please send me the reported growth for CCOP(=O)(OCC)OC[C@]12CC[C@@H](C)[C@H](C)C1C1=CC[C@@H]3[C@@]4(C)CCCNC(C)(C)[C@@H]4CC[C@@]3(C)[C@]1(C)CC2 (stereo not given in full) when you can. 72.7% (inactive)

Dear colleague, please send me the reported growth for Nn1c(=O)n(-c2cccc(C(F)(F)F)c2)c(=O)c2cc(-c3ccc(F)cc3F)ccc21 when you can. -8.64% (active)

* * *

# Test system: EKVX NSCLC
# PROTOCOL NOTES: NCI-60 one-dose screen, 48 h
# SETUP CONDITIONS: 10 µM unless noted
This is part of a sample that, as a whole, favours compounds with a hit. Of some 83,000 tested, about 20% had one in any assay. The source made the active and inactive calls. The calls were made as follows: active = growth percent below 10; inactive = the rest.
Respond only with the outcome that fits, drawn from TRUE for active, FALSE for inactive

STRUCTURE NOTATION	ASSIGNED CATEGORY
CCN(CC)c1ccc(/C=N/NC(=O)c2ccc(S(N)(=O)=O)cc2)c(O)c1	FALSE
Fc1cc(F)cc(NNC(=S)c2ccccc2)c1	FALSE
O=C1[C@@H]2Cc3c([nH]c4ccccc34)[C@@H](c3ccc(Cl)cc3)N2C(=O)CN1C1CCN(Cc2ccccc2)CC1	FALSE

Name the outcome recorded for O=C(CSc1nnc(-c2ccc(Cl)cc2)n1-c1ccccc1)Nc1cccc(F)c1 in the assay. FALSE

Recorded test outcome, item O=C(/C=C/c1cccc(F)c1)c1cccc(OCCCCOc2cccc(C(=O)/C=C/c3cccc(F)c3)c2)c1 FALSE

* * *

# Tested on: SF-539 CNS
# PROTOCOL NOTES: NCI-60 one-dose screen, 48 h (100 = growth as untreated, 0 = no growth, -100 = all killed)
# SETUP CONDITIONS: 10 µM unless noted
The panel holds about 83,000 compounds, 20% with a hit somewhere; the sample as a whole holds those more often.
ATTRIBUTE MEASURED: growth (%)
Numeric answer only, unit % assumed.

In the examples that follow, each entry is paired with its recorded growth.
STRUCTURE NOTATION	READING UNIT	RECORDED RESULT
CN1CCN(c2ccc(Nc3nc(NCCNC(=O)c4ccc(F)cc4)c4sccc4n3)cc2)CC1	%	-64.7
CC(=O)Nc1cc(N2CCOCC2)c2nc(NC(=O)c3[nH]c(C)c(Cl)c3Cl)sc2c1	%	48.7
CCOC(=O)c1ccccc1NC1=C(Cl)C(=O)c2nc(C)ccc2C1=O	%	96.1
COc1cc(NC(=O)Nc2cccc(-c3cc(=O)c4c(OC)c(OC)c(OC)cc4o3)c2)cc(OC)c1OC	%	47.9
CCN(CC)S(=O)(=O)c1ccc(-c2nc(C(Cl)Cl)nc3cc(-c4ccc(F)cc4)nn23)cc1	%	18.4

Indicate its recorded growth; the compound in question is CC1=C(C)C(=O)C(Nc2ccc3c(c2)OCO3)=C(Br)C1=O 106

Provide one value: measured growth of O=C(CCCCCCNC(=O)c1csc(Br)n1)NO 36.7

Answer with reported growth of O=C(CSc1nc2ccccc2c(=O)n1-c1ccc(Cl)c(Cl)c1)Nc1ccc(S(=O)(=O)Nc2ccc(Cl)nn2)cc1 90.7

Give the reported value of growth for this record: Cc1cc(C)cc(NC2=C(Cl)C(=O)c3nc(C)ccc3C2=O)c1 71.5

State, in one line, measured growth of CC(=O)Nc1ccccc1-c1nc2ccccc2s1 100

* * *

The following molecules are listed with their measured growth values.
# Test system: HOP-92 NSCLC
# PROTOCOL NOTES: NCI-60 one-dose screen, 48 h (100 = growth as untreated, 0 = no growth, -100 = all killed)
# SETUP CONDITIONS: 10 µM unless noted
About 83,000 compounds went through this panel and 20% of them were active in at least one assay; those are over-represented in the sample as a whole.
Your answer should be a plain number; it is taken to be in %.

Recorded results for 3 molecules are shown here.
STRUCTURE NOTATION	growth / %
COc1ccc(OC)c(NC(=O)CCCCCCNC(=O)C(O)(O)C(F)(F)F)c1	28.8
O=C(CCCCCCN1CC(=O)N2[C@@H](c3cccs3)c3[nH]c4ccccc4c3C[C@H]2C1=O)NO	69
CCCCCC[n+]1ccc(SCC(=O)n2ccc3ccccc32)c2ccccc21	81.2

# return recorded growth for entry O=C(O)c1ccc(-n2c(=O)n(-c3cccc(C(F)(F)F)c3)c(=O)c3cc(-c4ccc(F)cc4F)ccc32)cc1 -28.5

Tell me measured growth for CSc1ccc(/C(=N/N=C(N)N)c2ccc(Cl)cc2)cc1 please. -4.16

* * *

# System: SR leukemia
# PROTOCOL NOTES: NCI-60 one-dose screen, 48 h (100 = growth as untreated, 0 = no growth, -100 = all killed)
# SETUP CONDITIONS: 10 µM unless noted
# Description: Growth inhibition of the SR human tumor cell line is measured as a screen for anti-cancer activity. Cells are grown in 96 well plates and exposed to the test compound for 48 hours. Compounds are tested at a single concentration, which is 10^-5 M for most compounds. The reported endpoint is percent growth (GI% or GIPRCNT), where numbers from 0 - 100% represent growth inhibition, and numbers from -100% - 0 represent cell death. For example, a value of 40 represents 60% growth inhibition. […]
Compounds without any hit were thinned out: in the full panel of roughly 83,000, 20% have a hit.
The label is 1.0 for growth below 50% and 0.0 for growth equal to or exceeding 50%.

In plain terms, does Cc1ccc2c(n1)C(=O)C(Cl)=C(Nc1ccc(C#N)cc1)C2=O come in under 50% for growth? 1.0

Is 50% strictly greater than the compound's reported growth? compound: CN1CCN(Cc2ccc(NC(=O)c3cncc(C#Cc4cnc5ccc(OC6CCOCC6)nn45)c3)cc2C(F)(F)F)CC1 1.0

Take the compound CCc1cc(O)ccc1Nc1cc(-c2ccc(-n3cccn3)cc2)[nH]n1 and say whether its growth is less than 50%. 0.0

Given the entry Cc1cc2nc3c4cc(C#N)ccc4n(CCN(C)C)c3nc2cc1C , would its reported growth be below 50%? 1.0

Record Cc1cc(=O)[nH]c(O)c1C#N : is its growth strictly below 50%? 0.0
